Biological target: T1, recombinant cynomolgus monkey C5 (cynomolgus monkey, UniProt P01031 19-1676 (human entry), limits assumed)
T1 construct: also called cynoC5
T1 chain: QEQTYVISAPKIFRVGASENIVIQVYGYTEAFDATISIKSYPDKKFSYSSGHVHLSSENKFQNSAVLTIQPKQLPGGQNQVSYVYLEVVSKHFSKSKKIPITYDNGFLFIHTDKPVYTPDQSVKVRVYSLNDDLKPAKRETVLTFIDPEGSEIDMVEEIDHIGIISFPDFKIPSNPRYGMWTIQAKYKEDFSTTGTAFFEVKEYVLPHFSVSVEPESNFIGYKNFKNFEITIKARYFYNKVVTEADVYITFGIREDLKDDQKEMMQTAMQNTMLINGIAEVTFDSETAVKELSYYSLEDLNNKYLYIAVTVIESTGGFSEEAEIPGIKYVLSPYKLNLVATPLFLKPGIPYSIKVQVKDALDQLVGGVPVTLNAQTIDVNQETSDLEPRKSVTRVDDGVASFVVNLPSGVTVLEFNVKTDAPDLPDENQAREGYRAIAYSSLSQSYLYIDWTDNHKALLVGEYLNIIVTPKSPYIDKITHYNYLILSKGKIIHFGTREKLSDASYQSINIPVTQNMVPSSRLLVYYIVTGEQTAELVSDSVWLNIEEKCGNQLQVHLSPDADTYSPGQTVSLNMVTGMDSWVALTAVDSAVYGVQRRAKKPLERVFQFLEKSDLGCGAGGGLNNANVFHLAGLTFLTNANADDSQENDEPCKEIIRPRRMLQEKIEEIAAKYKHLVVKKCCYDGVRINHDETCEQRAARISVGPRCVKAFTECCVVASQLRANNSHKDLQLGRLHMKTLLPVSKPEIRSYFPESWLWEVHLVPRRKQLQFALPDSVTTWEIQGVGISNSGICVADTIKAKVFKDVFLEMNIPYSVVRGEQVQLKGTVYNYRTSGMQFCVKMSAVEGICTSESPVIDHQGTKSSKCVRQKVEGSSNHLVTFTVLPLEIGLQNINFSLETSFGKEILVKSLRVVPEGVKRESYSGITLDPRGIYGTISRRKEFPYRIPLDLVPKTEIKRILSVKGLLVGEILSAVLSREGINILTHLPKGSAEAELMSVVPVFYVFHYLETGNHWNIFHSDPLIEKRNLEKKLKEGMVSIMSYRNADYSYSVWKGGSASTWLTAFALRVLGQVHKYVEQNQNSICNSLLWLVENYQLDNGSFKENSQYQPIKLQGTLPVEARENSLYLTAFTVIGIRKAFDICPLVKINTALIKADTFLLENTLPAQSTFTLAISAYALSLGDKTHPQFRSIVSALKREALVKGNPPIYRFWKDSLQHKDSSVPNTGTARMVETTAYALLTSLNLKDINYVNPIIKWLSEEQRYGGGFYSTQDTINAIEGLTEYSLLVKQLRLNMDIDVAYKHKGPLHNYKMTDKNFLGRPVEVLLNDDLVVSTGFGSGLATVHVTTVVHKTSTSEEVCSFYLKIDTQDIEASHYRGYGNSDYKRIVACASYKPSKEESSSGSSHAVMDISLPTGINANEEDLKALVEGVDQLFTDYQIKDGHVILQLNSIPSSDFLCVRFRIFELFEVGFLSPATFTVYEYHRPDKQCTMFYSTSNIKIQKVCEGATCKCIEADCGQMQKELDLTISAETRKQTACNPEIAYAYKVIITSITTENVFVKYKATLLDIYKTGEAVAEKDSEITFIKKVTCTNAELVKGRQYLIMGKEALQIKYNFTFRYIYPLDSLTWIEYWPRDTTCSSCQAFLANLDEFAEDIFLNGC
Test: SPR (BIACORE T200), antibody captured by ProA/G, recombinant cynoC5 injected, 37 degrees C, pH7.4
Measurement name: koff (s⁻¹)
Please reply with the bare figure in s⁻¹ and do not write the unit itself.

Example cases with answers are listed next.
>  <Binder>
CFA0307 (antibody, V domains shown) VH: QSLEESGGGLVKPGASLTLTCKASGIDFSNFYYICWVRQAPGKGLDLIACIYTVSGYTYYASWAKGRLTISKTSSTTVTLQMTSLTAADTATYFCARDLHAGITNLWGPGTLVTVSS VL: AIEMTQTPFSVSAAVGGTVTIKCQASQNIYSNLAWYQQKPGQRPKLLIYGASNLESGVPSRFKGSGSGTEYTLTISDLECADAATYYCLQGYSYSNVDDAFGGGTEVVVK

>  <Measurement name>
koff

>  <Recorded value>
0.00223

$$$$
>  <Binder>
CFA0538 (antibody, V domains shown) VH: QSVEESGGRLVTPGTPLTLTCTASGFSLSSYYMNWVRQAPGKGLEWIGMIYGSGATYYASWAKGRFTISKTSSTTVDLKMTSLTTEDTATYFCARQIYSGDNNDNFWGPGTLVTVSS VL: AYDMTQTPASVEVAVGGTVTINCQASESISNWLAWYQQKPGQRPKLLIYRASTLASGVSSRFKGSGSGTQFTLTISGVECDDAATYYCQQDYSSSNVDNTFGGGTTVVVE

>  <Measurement name>
koff

>  <Recorded value>
0.00166

$$$$

Input: Item CFA0305 (antibody, V domains shown) VH: QSLEESGGDLVKPGASLAVTCTASGFSSSSSYYMCWVRQAPGKGLEWIGCIYTGSGATYYASWAKGRFTISKTSSTTVTLQMTSLTVADTATYFCASDGGYVTPTHAMYLWGPGTLVTVSS VL: DVVMTQTPASVSAAVGGTVTIKCQASQNIGSDLAWYQQKPGQPPRLLIYGASKLASGVSSRFSGSGSGKEFTLTISDLECADAVTYYCQCTFVGSSYGNAFGGGTEVVVK has what recorded koff?
Output: 0.00067
